- System: UO-31
- RUN_DESCRIPTION: NCI tumour cell line growth inhibition, 48 h
Activity calls are given as the source filed them. Rule as the data show it: active = GI50 up to about 1.1 µM and inactive = higher.
Reported GI50 values are given for each entry in this list.

1) O=C(NC(Cc1ccc(Br)cc1)C(=O)O)c1ccc(I)cc1 (configuration not stated)	> 100 µM (inactive)
2) O=C(C/C(=N/O)c1cc(-c2ccccc2)no1)c1ccccc1	26.4 µM (inactive)

GET /value?item= CCCCCCCCCCCCCC[C@@H](O)[C@H]1CC[C@H]([C@H]2CC[C@H]([C@H](O)CCCCCC[C@@H](O)CC3=C[C@H](C)OC3=O)O2)O1 &field=GI50 returns > 25 µM (inactive)

GET /value?item= C=C(C)C1Cc2c(cc(O)c3c(=O)c4c(oc23)C(O)Oc2cc(OC)c(OC)cc2-4)O1 (configuration not stated) &field=GI50 returns > 10 µM (inactive)

GET /value?item= C=CC1(C)CCC2C(=CCC3C2(C)CC(O)C(O)C3(C)COC2OC(CO)C(O)C(O)C2O)C1 (configuration not stated) &field=GI50 returns > 100 µM (inactive)

GET /value?item= COc1cc(OC)c(C2(c3c(OC(C)C)c(=O)c3=O)SCCCS2)cc1OC &field=GI50 returns > 100 µM (inactive)

GET /value?item= O=C(N/S(=N/S(=O)(=O)c1ccc(Br)cc1)C(Cl)(Cl)Cl)c1ccccc1 (configuration not stated) &field=GI50 returns > 100 µM (inactive)

GET /value?item= O=C(C1OC1c1ccc(Cl)cc1)C12CC3CC(CC(C3)C1)C2 (configuration not stated) &field=GI50 returns 20.4 µM (inactive)

GET /value?item= CC(=O)Oc1ccc2c(C)cc(=O)oc2c1 &field=GI50 returns > 100 µM (inactive)

GET /value?item= COc1ccc(/C=C2/C(C)=NN(c3cccc(Cl)c3)/C2=N/c2nc3ccccc3s2)cc1 &field=GI50 returns 19.3 µM (inactive)

GET /value?item= COc1ccc(/N=N/C(=N\c2ccc(F)cc2)c2ccc(N(CCC#N)CCC#N)cc2)cc1 &field=GI50 returns 68.5 µM (inactive)

GET /value?item= C[N+](C)(C)/N=C\c1ccc(O)c(O)c1 &field=GI50 returns > 100 µM (inactive)

* * *

- Tested on: MCF7
- RUN_DESCRIPTION: NCI tumour cell line growth inhibition, 48 h
Activity calls are given as the source filed them. Rule as the data show it: active = GI50 up to about 1.1 µM and inactive = higher.
Allowed answers: active, inactive

1) COc1cc(OC)c(C2(c3c(OC(C)C)c(=O)c3=O)SCCCS2)cc1OC	inactive
2) N#Cc1c(O)nc2[nH]nc(/N=N\c3c(O)ccc4ccccc34)c2c1-c1ccc(Cl)cc1	active
3) CC(Nc1cc(Cl)cc(Cl)c1)c1ccncc1 (centres undefined)	inactive
4) OCCn1cnc2c(SCc3ccccc3)ncnc21	inactive
5) CCOC(=O)CSc1nnc(CSc2nc(-c3ccccc3)c(-c3ccccc3)[nH]2)n1-c1ccccc1	inactive

Turning now to a further record.
[ask] // outcome(item) with item = Cc1ccc(C(=O)N/N=C(\N=N\c2ccccc2[N+](=O)[O-])c2ccc(N(C)C)cc2)cc1
[reply] inactive

* * *

- Test system: A498
- RUN_DESCRIPTION: NCI tumour cell line growth inhibition, 48 h
Calls of active or inactive are those of the source. Rule as the data show it: active = GI50 up to about 1.1 µM and inactive = higher.
ENDPOINT_NAME: GI50

Consider the following illustrative entries.
1) O=C1OC(=O)C([Se]c2ccccc2)=C1[Se]c1ccccc1	> 100 µM (inactive)
2) [O-][S+]1Nc2c(Cl)cc(Cl)c(Cl)c2S1 (configuration not stated)	82.6 µM (inactive)

GET /value?item= CCOP(=O)(OCC)C(F)(F)c1ccc(CC(NC(=O)OC(C)(C)C)C(=O)O)cc1 (configuration not stated) &field=GI50 returns > 10 µM (inactive)
